Test system: SNB-75 CNS
MEASUREMENT_DESCRIPTION: NCI tumour cell line growth inhibition, 48 h
Record form. Attribute: log10 of TGI. Fill in for each entry.
Scale: log10; quantity: TGI; unit before log: µM

Value sought for every listed compound: log10 of TGI.
1. O=S(=O)(NCCCNc1cc(-c2cn(-c3ccccc3)nc2-c2cccc(O)c2)ccn1)c1ccc(C(F)(F)F)cc1
2. O=C(N/N=C/c1ccc(Cl)cc1)c1ccc(NC(=O)c2ccccn2)cc1
3. O=C(/C=C\c1ccc(O)c(O)c1)c1ccccc1O
4. CC(C#N)(c1ccccc1)N(CCc1ccccc1)C(=O)Oc1ccccc1 (configuration not stated)
5. Cc1c2cnccc2c(C)c2c1c1ccccc1n2CCOC(=O)c1ccccc1

1: 0.70; 2: 1.40; 3: 1.97; 4: 1.91; 5: 1.65

Batch of 4 compounds: report log10 of TGI for each.
1. CC1(C)N=C(N)N=C(N)N1c1ccc(OCCCNC(=O)Nc2ccc(S(=O)(=O)F)cc2)c(Cl)c1
2. O=C(CCCc1ccc(N(CCCl)CCCl)cc1)NCc1ccccc1
3. NS(=O)(=O)c1ccc(NC(=S)NC(=O)Nc2ccc(Cl)c(Cl)c2)cc1
4. C=C(CO)C(=O)OC1CC(=C)C2CC(O)C(C)C2C2OC(=O)C(=C)C12 (configuration not stated)

[1.70, 1.52, 1.46, 1.66]

Hi team, please reply with log10 of TGI for each item in this list.
1. O=C1C=CC2(C=C1)O[C@H](COCc1ccccc1)[C@@H](COCc1ccccc1)O2
2. COc1cc2cc(NCc3cccc(Cl)c3)nc(C)c2cc1OC
3. COc1ccc(/C=C/C(=O)c2cc(OC)cc(OC)c2)cc1
4. CCOc1ccc(N(C)c2ccc(/C=C/C3=[N+](C)c4ccccc4C3(C)C)cc2)cc1
5. COc1ccc2c(c1)[C@@H](NC(C)=O)CCc1cc(OC)c(OC)c(OC)c1-2

1: 1.13; 2: 1.29; 3: 0.91; 4: 0.44; 5: 1.11

Would you mind listing log10 of TGI for each of the following compounds?
1. Nc1c(C(=O)Nc2cccc(Cl)c2)sc2nc3c(cc12)C(=O)CCC3
2. O=C1C=C(Nc2ccccc2)c2ccccc2C1=O
3. CCCCn1c(=O)[nH]c(N)c([C@@H]2c3c([nH]c(=O)n(CCCC)c3=O)Oc3ccc4ccccc4c32)c1=O

1: 0.39; 2: 0.43; 3: 0.98

---

System: UACC-257 melanoma
MEASUREMENT_DESCRIPTION: NCI tumour cell line growth inhibition, 48 h
Exercise: state measured TGI for each of the compounds provided.

Some solved cases for reference:
{"columns": ["COMPOUND", "TGI"],
 "data": [
  ["COc1nc(NC2OC(COC(C)=O)C(OC(C)=O)C(OC(C)=O)C2OC(C)=O)c(N=CC=Nc2c(NC3OC(COC(C)=O)C(OC(C)=O)C(OC(C)=O)C3OC(C)=O)nc(OC)[nH]c2=O)c(=O)[nH]1 (configuration not stated)", "> 100 µM"],
  ["Cc1ccc2c(c1C)C(=O)C1(C2)Cc2ccc3c(c2C1=O)CCC3 (configuration not stated)", "> 100 µM"],
  ["COc1cccc2c1C(=O)c1c(O)c3c(c(O)c1C2=O)C[C@@](O)(C(=O)CO)CC3OC1CC(N(C)CCOCC(OC(C)=O)OC(C)=O)C(O)C(C)O1 (some centres not stated)", "> 0.01 µM"],
  ["COC(=O)/C=C1\\SC2(OC1=Nc1ccccc1)C1CC3CC(C1)CC2C3 (configuration not stated)", "> 100 µM"],
  ["O=C([CH-]C(=O)c1ccccc1)c1ccccc1.O=C([CH-]C(=O)c1ccccc1)c1ccccc1.O=C([CH-]C(=O)c1ccccc1)c1ccccc1.[Ga+3]", "> 100 µM"]
]}

Dear colleague, could you please provide TGI for the compounds listed below?
1. Cc1cn([C@@H]2O[C@H](CO[Si](C)(C)C(C)(C)C)[C@]3(O[C@H]3C(=O)NO)[C@H]2O[Si](C)(C)C(C)(C)C)c(=O)[nH]c1=O
2. O=[N+]([O-])c1ccc(C2=NCCO2)cc1

6.92 µM
> 100 µM
